All figures here come from ChEMBL document CHEMBL5518246.

- assay.summary: Unbound plasma clearance in Sprague-Dawley rat at 1 mg/kg, iv measured after 24 hrs
- Format: ADME, organism-based
- details: in vivo
Output label 1 for records whose CL free is lower than 100 mL/min/kg, label 0 for records at or above 100 mL/min/kg.

Criterion: CL free strictly below 100 mL/min/kg. Is it met by "C[C@H](NC(=O)[C@]1(NC(=O)c2cc(Cl)c(Cl)[nH]2)CO[C@H](c2ccc(F)cc2)C1)c1ncc2c(n1)CN(C1CCN(C)CC1)C2" ?
label 0

Criterion: CL free strictly below 100 mL/min/kg. Is it met by "COCc1ccc([C@@H]2C[C@](NC(=O)c3cc(Cl)c(Cl)[nH]3)(C(=O)N[C@@H](C)c3ncc4c(n3)CN(C3CCN(C)CC3)C4)CO2)cc1" ?
label 0

Criterion: CL free strictly below 100 mL/min/kg. Is it met by "C[C@H](NC(=O)[C@]1(NC(=O)c2cc(Cl)c(Cl)[nH]2)CO[C@H](c2ccccc2)C1)c1ncc2c(n1)COC2" ?
label 0

Criterion: CL free strictly below 100 mL/min/kg. Is it met by "C[C@H](NC(=O)[C@]1(NC(=O)c2cc(Cl)c[nH]2)CO[C@H](c2ccccc2)C1)c1ncc2c(n1)CN(C1CCN(C)CC1)C2" ?
label 1
